System: NCI-H460 lung
assay-protocol: NCI tumour cell line growth inhibition, 48 h
measured-endpoint: TGI (µM)
Please give a number only; it is taken to be in µM.

In: Dear colleague, I am looking for the recorded TGI of the following molecule: Clc1cccc(Cl)c1C1CSc2ccccc2N=C1c1ccccc1 (stereo not given)
Out: 15.6

In: Dear colleague, I am looking for the recorded TGI of the following molecule: [O-][n+]1ccccc1S
Out: 5.21

In: Dear colleague, I am looking for the recorded TGI of the following molecule: O=C1Nc2c(C(F)(F)F)cccc2[C@@]1(c1ccc(O)cc1)c1ccc(OC(F)(F)F)cc1
Out: 19.7

In: Dear colleague, I am looking for the recorded TGI of the following molecule: COC(=O)c1c(O)ccc2c1c1c(n2Cc2ccc(Cl)cc2Cl)C(=O)c2ccccc2C1=O
Out: 13

====

Tested on: LOX IMVI melanoma
assay-protocol: NCI tumour cell line growth inhibition, 48 h; in the data active means GI50 below about 0.43 µM; inactive means the rest
Pick from yes = active, no = inactive when you respond.

In: Could you please tell me the result logged for O=C1C(=O)c2c(nc3ccc(Br)cn23)-c2ccccc21 in this assay?
Out: yes

In: Could you please tell me the result logged for CC(=O)c1cc(C(=O)c2ccc3c(c2)Sc2ccccc2N3)c2c(C)cc(C)cn12 in this assay?
Out: no

In: Could you please tell me the result logged for Cc1cc(O)ccc1C1=NN(c2ccc(S(C)(=O)=O)cc2)C(=O)CC1 in this assay?
Out: no

In: Could you please tell me the result logged for O=C1Nc2c(C(F)(F)F)cccc2[C@@]1(c1ccc(O)cc1)c1ccc(OC(F)(F)F)cc1 in this assay?
Out: yes

In: Could you please tell me the result logged for O=C(c1ccccc1)c1ccc(Oc2ccc([N+](=O)[O-])cc2[N+](=O)[O-])cc1 in this assay?
Out: no

In: Could you please tell me the result logged for COc1ccc2c(c1)[nH]c(=O)c1c3cc(OC)ccc3cn21 in this assay?
Out: yes

In: Could you please tell me the result logged for CCN1C(=O)N(CC)C2Nn3c(s/c(=C\c4ccccc4Br)c3=O)=NC21 (stereo not drawn) in this assay?
Out: no

In: Could you please tell me the result logged for O=C(CN(/C=C/C(=O)C(F)(F)F)c1ccc(Cl)cc1)c1ccccc1 in this assay?
Out: no

====

Tested on: OVCAR-5 ovarian
assay-protocol: NCI tumour cell line growth inhibition, 48 h
measured-endpoint: TGI

In: Dear colleague, I am looking for the recorded TGI of the following compound: COC(=O)[C@@H]1CN(C(C)=O)C(=O)N1C(=O)OCc1ccccc1
Out: > 100 µM

In: Dear colleague, I am looking for the recorded TGI of the following compound: COc1ccc(C(CC(=O)C(C)(C)CN2CCCCC2)SCCS(=O)(=O)O)cc1 (stereo not given)
Out: > 100 µM

In: Dear colleague, I am looking for the recorded TGI of the following compound: COC(=O)c1c(O)ccc2c1c1c(n2Cc2ccc(Cl)cc2Cl)C(=O)c2ccccc2C1=O
Out: 42.9 µM

In: Dear colleague, I am looking for the recorded TGI of the following compound: CCCCCCCCCCCCC[C@H](O)C[C@H](O)[C@H](C)N
Out: 3.42 µM

In: Dear colleague, I am looking for the recorded TGI of the following compound: OCC(O)C(O)C(O)c1nn(-c2ccc(Cl)cc2)c2nc3cc(Cl)c(Cl)cc3nc12 (stereo not given)
Out: > 100 µM

In: Dear colleague, I am looking for the recorded TGI of the following compound: CC1COc2c(N3CCN(C)CC3)c(F)cc3c(=O)c(C(=O)O)cn1c23 (stereo not given)
Out: > 100 µM

In: Dear colleague, I am looking for the recorded TGI of the following compound: NNC(=O)CNC(=O)c1ccc(Cl)cc1Cl
Out: > 100 µM

In: Dear colleague, I am looking for the recorded TGI of the following compound: CNC(=O)N(CCC#N)CCCN(C(=O)NC)c1ccccc1
Out: > 100 µM

In: Dear colleague, I am looking for the recorded TGI of the following compound: CNCc1cc(OC)ccc1-c1ccc(OC)c(OC)c1OC
Out: > 100 µM

In: Dear colleague, I am looking for the recorded TGI of the following compound: O=C1CCC2CC(C(=O)c3ccccc3)CCC2CN1 (stereo not given) (tested in a mixture with another compound)
Out: > 100 µM

====

Could you please report measured TGI for the items listed next?
System: HS 578T breast
assay-protocol: NCI tumour cell line growth inhibition, 48 h
Please give a number only; it is taken to be in µM.

In: Dear colleague, I am looking for the recorded TGI of the following molecule: COc1ccc2cc(-c3cc4c(oc3=O)-c3ccccc3OC4O)c(=O)oc2c1 (stereo not given)
Out: 45.1

In: Dear colleague, I am looking for the recorded TGI of the following molecule: COC(CC1(/C=C/O[Si](C(C)C)(C(C)C)C(C)C)C(=O)N(C)c2ccccc21)OC (stereo not given)
Out: 45.2

In: Dear colleague, I am looking for the recorded TGI of the following molecule: COC(=O)[C@]12CC[C@@H](C)[C@H](C)[C@@H]1C1=CC[C@@H]3[C@@]4(C)C(C=O)=C[C@@](C)(COC(C)=O)C4=CC[C@@]3(C)[C@]1(C)CC2
Out: 30.3

In: Dear colleague, I am looking for the recorded TGI of the following molecule: O=C1C(=O)c2c(nc3ccc(Br)cn23)-c2ccccc21
Out: 2.23

====

Could you please report measured GI50 for the items listed next?
Tested on: CAKI-1 renal
assay-protocol: NCI tumour cell line growth inhibition, 48 h

In: Dear colleague, I am looking for the recorded GI50 of the following compound: Clc1cccc(Cl)c1C1CSc2ccccc2N=C1c1ccccc1 (centres undefined)
Out: 10.6 µM

In: Dear colleague, I am looking for the recorded GI50 of the following compound: Cc1ccc2ncnc(N(CC(C)C)CC(C)C)c2c1
Out: 12.8 µM

In: Dear colleague, I am looking for the recorded GI50 of the following compound: Clc1ccc2c(c1)N(CCCN1CCCC1)c1ccccc1S2
Out: 11 µM

In: Dear colleague, I am looking for the recorded GI50 of the following compound: Cc1ccccc1-n1ncc(C(=O)c2ccccc2)c1N
Out: > 25 µM

====

Test system: T-47D breast
assay-protocol: NCI tumour cell line growth inhibition, 48 h
Could you please report measured GI50 for the items listed next?

In: Dear colleague, I am looking for the recorded GI50 of the following compound: CN(C)c1ccc(N=C2C=CC(=[N+](C)C)C=C2)cc1
Out: 4.37 µM

In: Dear colleague, I am looking for the recorded GI50 of the following compound: O=C(/C(=C\c1ccc([N+](=O)[O-])cc1)S(=O)Cc1ccc(F)cc1)c1ccc(F)cc1 (stereo not given)
Out: 2.08 µM

In: Dear colleague, I am looking for the recorded GI50 of the following compound: C=C(C)[C@@H]1CC[C@]2(C(=O)O)CC[C@]3(C)[C@H](CC[C@@H]4[C@@]5(C)C[C@@H](CC#Cc6ccc(C(F)(F)F)cc6)[C@H](O)C(C)(C)[C@@H]5CC[C@]43C)[C@@H]12
Out: 4.75 µM

In: Dear colleague, I am looking for the recorded GI50 of the following compound: CCCCCCCCN(CCCCCCCC)CCCCCCNc1cc(OC)cc2cccnc12
Out: 12.1 µM

In: Dear colleague, I am looking for the recorded GI50 of the following compound: Nc1nc(OCc2cc(Br)cs2)c2[nH]cnc2n1
Out: 17.5 µM

====

Tested on: COLO 205 colon
assay-protocol: NCI tumour cell line growth inhibition, 48 h
Could you please report measured TGI for the items listed next?

In: Dear colleague, I am looking for the recorded TGI of the following compound: Cc1ccc2ncnc(N(CC(C)C)CC(C)C)c2c1
Out: 39.1 µM

In: Dear colleague, I am looking for the recorded TGI of the following compound: COC1=CCC=C(C[C@@H]2NCCc3cc(OC)c(OC)cc32)C1
Out: > 100 µM

In: Dear colleague, I am looking for the recorded TGI of the following compound: c1ccc([P+](Cc2ccccc2C[P+](c2ccccc2)(c2ccccc2)c2ccccc2)(c2ccccc2)c2ccccc2)cc1
Out: > 100 µM

In: Dear colleague, I am looking for the recorded TGI of the following compound: O=c1oc2ccccc2c(O)c1/C=N/C(=S)NCCc1ccccc1
Out: > 100 µM

In: Dear colleague, I am looking for the recorded TGI of the following compound: COc1ccc(C(SCC(N)C(=O)O)(c2ccccc2)c2ccccc2)cc1 (stereo not given)
Out: 15.8 µM

In: Dear colleague, I am looking for the recorded TGI of the following compound: CN(NC(=O)c1cccs1)C1=NCCCCN1
Out: > 100 µM

In: Dear colleague, I am looking for the recorded TGI of the following compound: COc1cc(-c2nc3ccccc3s2)ccc1NC(=O)COc1ccc(Cl)cc1
Out: > 100 µM

In: Dear colleague, I am looking for the recorded TGI of the following compound: CO/N=C(\C(=O)N(C)n1cnnc1)c1csc(NC(c2ccccc2)(c2ccccc2)c2ccccc2)n1
Out: > 10 µM

In: Dear colleague, I am looking for the recorded TGI of the following compound: Cc1ccc(Nc2c(C#N)[n+]([O-])c3cc(Cl)ccc3[n+]2[O-])cc1
Out: > 100 µM

In: Dear colleague, I am looking for the recorded TGI of the following compound: Cc1ccc(-c2cc(C(F)(F)F)nn2-c2ccc(S(N)(=O)=O)cc2)cc1
Out: 50.8 µM

In: Dear colleague, I am looking for the recorded TGI of the following compound: COC(=O)[C@@H]1CN(C(C)=O)C(=O)N1C(=O)OCc1ccccc1
Out: > 100 µM

In: Dear colleague, I am looking for the recorded TGI of the following compound: C=CCSC1=N/C(=C\c2cccs2)C(=O)N1CC=C
Out: > 100 µM

In: Dear colleague, I am looking for the recorded TGI of the following compound: CC(=O)Nc1cc(N(CCOS(C)(=O)=O)CCOS(C)(=O)=O)ccc1N=O
Out: > 100 µM

In: Dear colleague, I am looking for the recorded TGI of the following compound: CC1SC2=NC3=C(c4ccccc4C3=O)C(c3ccc(Cl)cc3)N2C1=O (stereo not given)
Out: > 100 µM

In: Dear colleague, I am looking for the recorded TGI of the following compound: O=C(c1ccccc1)c1ccc(Oc2ccc([N+](=O)[O-])cc2[N+](=O)[O-])cc1
Out: 5.46 µM

Ref: PubChem BioAssay (NCI)
